# System tested: GABA-A receptor; anion channel (Rattus norvegicus) (UniProt O09028+P15431+P18506+P18508+P19969+P20236+P23574+P23576+P28471+P28473+P30191+P62813+P63079+P63138+Q91ZM7+Q9ES14)
# Applied conditions: Brain, Brain membranes
# Description: In vitro inhibition of [35S]TBPS binding in rat brain membranes, activity expressed as [35S]TBPS shift value
// false strictly below 0.8 in [35S] TBPS shift; true otherwise

{"Compound string": "O=C(c1ccco1)N1Cc2c(-c3noc(C4CC4)n3)ncn2-c2ccccc21", "Assigned class": "true"}
{"Compound string": "CC(C)(C)OC(=O)N1Cc2c(-c3noc(C4CC4)n3)ncn2-c2ccccc21", "Assigned class": "true"}
{"Compound string": "CC(C)(C)c1nc(-c2ncn3c2CN(C(=O)N2CCCC2)c2ccccc2-3)no1", "Assigned class": "false"}
{"Compound string": "CSC(=O)N1Cc2c(-c3noc(C4CC4)n3)ncn2-c2ccccc21", "Assigned class": "true"}
{"Compound string": "O=C(c1ccccn1)N1Cc2c(-c3noc(C4CC4)n3)ncn2-c2ccccc21", "Assigned class": "false"}
{"Compound string": "O=C(c1ccc[nH]1)N1Cc2c(-c3noc(C4CC4)n3)ncn2-c2ccccc21", "Assigned class": "true"}
{"Compound string": "NC(=O)N1Cc2c(-c3noc(C4CC4)n3)ncn2-c2ccccc21", "Assigned class": "false"}
{"Compound string": "O=C(Nc1ccccc1)N1Cc2c(-c3noc(C4CC4)n3)ncn2-c2ccccc21", "Assigned class": "true"}
{"Compound string": "CN(C)C(=O)N1c2ccccc2-n2cnc(-c3noc(C4CC4)n3)c2C1(C)C", "Assigned class": "true"}
{"Compound string": "CC1(C)c2c(-c3noc(C4CC4)n3)ncn2-c2ccccc2N1C(N)=O", "Assigned class": "false"}
{"Compound string": "CN(C)C(=O)N1Cc2c(-c3noc(C4CC4)n3)ncn2-c2cccc(F)c21", "Assigned class": "true"}
{"Compound string": "O=C(N1CCOCC1)N1Cc2c(-c3noc(C4CC4)n3)ncn2-c2cccc(F)c21", "Assigned class": "false"}
{"Compound string": "CC(C)OC(=O)N1Cc2c(-c3noc(C4CC4)n3)ncn2-c2ccccc21", "Assigned class": "true"}
{"Compound string": "O=C(N1Cc2c(-c3noc(C4CC4)n3)ncn2-c2ccccc21)C(F)(F)F", "Assigned class": "false"}
{"Compound string": "CC(C)NC(=O)N1Cc2c(-c3noc(C4CC4)n3)ncn2-c2ccccc21", "Assigned class": "true"}
{"Compound string": "O=C(N1CCOCC1)N1Cc2c(-c3noc(C4CC4)n3)ncn2-c2ccccc21", "Assigned class": "true"}
{"Compound string": "CCc1nc(-c2ncn3c2CN(C(=O)N2CCCC2)c2ccccc2-3)no1", "Assigned class": "false"}
{"Compound string": "COC(=O)N1Cc2c(-c3noc(C4CC4)n3)ncn2-c2ccccc21", "Assigned class": "false"}
{"Compound string": "O=C(c1ccccc1)N1Cc2c(-c3noc(C4CC4)n3)ncn2-c2ccccc21", "Assigned class": "false"}
{"Compound string": "O=C(N1CCCC1)N1Cc2c(-c3noc(C4CC4)n3)ncn2-c2ccc(Cl)cc21", "Assigned class": "true"}
{"Compound string": "O=C(N1CCOCC1)N1Cc2c(-c3noc(C4CC4)n3)ncn2-c2ccc(F)cc21", "Assigned class": "true"}
{"Compound string": "CC1(C)c2c(-c3noc(C4CC4)n3)ncn2-c2ccc(Cl)cc2N1C(=O)N1CCCC1", "Assigned class": "false"}
{"Compound string": "O=C(N1CCCC1)N1Cc2c(-c3noc(C4CC4)n3)ncn2-c2cccc(F)c21", "Assigned class": "true"}
{"Compound string": "CN(C)C(=O)N1Cc2c(-c3noc(C4CC4)n3)ncn2-c2ccc(F)cc21", "Assigned class": "true"}
{"Compound string": "O=C(N1CCCC1)N1Cc2c(-c3noc(C4CC4)n3)ncn2-c2ccc(F)cc21", "Assigned class": "true"}
{"Compound string": "CC1(C)c2c(-c3noc(C4CC4)n3)ncn2-c2ccccc2N1C(=O)N1CCCC1", "Assigned class": "true"}
{"Compound string": "CC(=O)N1c2ccccc2-n2cnc(-c3noc(C4CC4)n3)c2C1(C)C", "Assigned class": "false"}
{"Compound string": "CCNC(=O)N1Cc2c(-c3noc(C4CC4)n3)ncn2-c2ccccc21", "Assigned class": "false"}
{"Compound string": "O=C(N1CCCC1)N1Cc2c(-c3noc(C4CC4)n3)ncn2-c2ccccc21", "Assigned class": "false"}
{"Compound string": "CN(C)C(=O)N1Cc2c(-c3noc(C4CC4)n3)ncn2-c2ccc(Cl)cc21", "Assigned class": "true"}
{"Compound string": "CNC(=O)N1Cc2c(-c3noc(C4CC4)n3)ncn2-c2ccccc21", "Assigned class": "true"}
{"Compound string": "CC(C)n1c(=O)c2c(-c3noc(C4CC4)n3)ncn2c2ccccc21", "Assigned class": "false"}
{"Compound string": "Cc1cccc2c1N(C(=O)N1CCOCC1)Cc1c(-c3noc(C4CC4)n3)ncn1-2", "Assigned class": "false"}
{"Compound string": "O=C(N1CCOCC1)N1Cc2c(-c3noc(C4CC4)n3)ncn2-c2ccc(Cl)cc21", "Assigned class": "false"}
{"Compound string": "CN(C)C(=O)N1Cc2c(-c3noc(C4CC4)n3)ncn2-c2ccccc21", "Assigned class": "false"}
{"Compound string": "CCSC(=O)N1Cc2c(-c3noc(C4CC4)n3)ncn2-c2ccccc21", "Assigned class": "true"}
{"Compound string": "O=C(Sc1ccccc1)N1Cc2c(-c3noc(C4CC4)n3)ncn2-c2ccccc21", "Assigned class": "true"}

Origin of measurements: ChEMBL document CHEMBL1129282
